Experiment: Microsomal metabolic stability assay
Assay type: in vitro ADME
Details: pH 7.4; rat liver microsomes, 0.5 mg/mL protein, 1 μM compound; read-out: Rat LM T½
MEASURE: half-life at 1 μM (min)

Here are 2 compounds together with their reported answers.
{"columns": ["GIVEN SMILES", "MEASURE", "REPORTED VALUE"],
 "data": [
  ["[2H]C([2H])([2H])NC(=O)c1cnc(Nc2ccc(F)cn2)cc1Nc1ccc2cnn(C([2H])([2H])[2H])c2c1OC", "half-life at 1 μM", 29.6],
  ["[2H]C([2H])([2H])NC(=O)c1cnc(NC(=O)C2CC2)cc1Nc1ccc2cnn(CC)c2c1OC", "half-life at 1 μM", 12.5]
]}

(A) [2H]C([2H])([2H])NC(=O)c1cnc(NC(=O)C2CC2)cc1Nc1cn(C)c2c(F)cn(CC(F)F)c(=O)c12
(B) [2H]C([2H])([2H])NC(=O)c1cnc(Nc2ccn(C)n2)cc1Nc1cn(C)c2c(C)cn(CC)c(=O)c12
Ask | Between A and B , whose recorded half-life at 1 μM is greater? Your choice should be expressed through its label.
Reply | A

====

Target: Ba/F3-FL-TYK2-P760L cells (Homo sapiens, UniProt P29597, P760L, cells depend on it)
Construct: BaF3-FL-T2P760L (nM)
Sequence (P29597 whole entry P760L): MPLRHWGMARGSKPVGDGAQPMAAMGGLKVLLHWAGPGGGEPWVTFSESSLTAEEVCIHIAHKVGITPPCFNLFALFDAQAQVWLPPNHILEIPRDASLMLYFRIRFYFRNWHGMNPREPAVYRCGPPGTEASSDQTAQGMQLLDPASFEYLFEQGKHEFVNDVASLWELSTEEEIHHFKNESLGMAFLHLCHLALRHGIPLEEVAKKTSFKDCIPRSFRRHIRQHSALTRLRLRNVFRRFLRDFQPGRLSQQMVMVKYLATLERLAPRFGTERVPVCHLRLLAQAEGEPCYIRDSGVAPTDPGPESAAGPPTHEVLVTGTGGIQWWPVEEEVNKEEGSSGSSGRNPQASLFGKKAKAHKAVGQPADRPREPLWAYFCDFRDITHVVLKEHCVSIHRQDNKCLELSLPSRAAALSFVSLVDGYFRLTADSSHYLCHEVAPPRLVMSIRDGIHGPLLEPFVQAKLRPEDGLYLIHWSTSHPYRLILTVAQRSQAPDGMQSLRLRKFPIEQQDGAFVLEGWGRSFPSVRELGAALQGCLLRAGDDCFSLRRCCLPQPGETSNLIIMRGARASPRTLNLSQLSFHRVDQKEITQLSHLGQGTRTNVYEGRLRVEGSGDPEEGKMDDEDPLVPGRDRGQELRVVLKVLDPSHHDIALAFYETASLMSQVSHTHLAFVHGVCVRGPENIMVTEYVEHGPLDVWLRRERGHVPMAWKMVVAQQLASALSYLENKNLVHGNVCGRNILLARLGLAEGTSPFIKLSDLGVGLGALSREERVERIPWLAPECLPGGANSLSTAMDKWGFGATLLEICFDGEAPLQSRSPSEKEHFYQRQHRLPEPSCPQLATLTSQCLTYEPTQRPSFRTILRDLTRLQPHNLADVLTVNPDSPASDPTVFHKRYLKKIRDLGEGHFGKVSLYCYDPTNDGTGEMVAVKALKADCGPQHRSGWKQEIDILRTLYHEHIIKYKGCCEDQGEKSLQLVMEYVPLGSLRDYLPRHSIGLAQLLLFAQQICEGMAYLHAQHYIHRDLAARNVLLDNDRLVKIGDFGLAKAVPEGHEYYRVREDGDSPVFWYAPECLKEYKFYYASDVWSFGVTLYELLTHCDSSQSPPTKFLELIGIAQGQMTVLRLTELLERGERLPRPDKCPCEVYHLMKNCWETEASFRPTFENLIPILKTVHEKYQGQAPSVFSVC
Experiment: Anti-proliferative assay, Ba/F3-FL-TYK2-P760L cells (Cell-Titer Glo)
Assay type: cell-based
Details: 72 h, read-out: BaF3-FL-T2P760L IC50
MEASURE: GI50 (nM)

Use the examples below as a reference point.
{"columns": ["COMPOUND", "RESULT UNITS", "REPORTED VALUE"],
 "data": [
  ["[2H]C([2H])([2H])NC(=O)c1nnc2cc1Nc1cc(cc(-c3nnc(C)o3)c1OC)COCc1nc(ccc1F)N2", "nM", 126],
  ["[2H]C([2H])([2H])NC(=O)c1cnc(NC(=O)C2CC2)cc1Nc1ccc2cnn(CC)c2c1OC([2H])([2H])[2H]", "nM", 70.8],
  ["[2H]C([2H])([2H])NC(=O)c1nnc2cc1Nc1cc(cc(-c3ccc(F)cc3)c1OC)COCc1nc(ccc1F)N2", "nM", 7980],
  ["[2H]C([2H])([2H])NC(=O)c1cnc(NC(=O)C2CC2)cc1Nc1ccn2ncc(C(C)C#N)c2c1OC (single isomer, unassigned) [Example 251A]", "nM", 541],
  ["[2H]C([2H])([2H])NC(=O)c1cnc2cc1Nc1cc(cc(-c3ncn(C(C)C)n3)c1OC)COCc1cccc(n1)N2", "nM", 676],
  ["CNC(=O)c1nnc2cc1Nc1cc(cc(-c3ncn(C)n3)c1OC)CN(C)Cc1cccc(n1)N2", "nM", 856]
]}

(1) CNC(=O)c1nnc2cc1Nc1cc(cc(-c3ncn(C)n3)c1OC)COCc1cccc(n1)N2
(2) [2H]C([2H])([2H])NC(=O)c1cnc(NC(=O)C2CC2)cc1Nc1nn(CCCOC)c2ccn(CC(F)(F)F)c(=O)c12
(3) [2H]C([2H])([2H])NC(=O)c1cnc(NC(=O)C2CC2)cc1Nc1nn(C)c2ccn(CC(F)(F)F)c(=O)c12
Ask | Sort entries by GI50 from minimum to maximum value. In plain terms: list the labels in the order you were asked to.
Reply | 1, 3, 2

(1) [2H]C([2H])([2H])NC(=O)c1nnc(NC(=O)C2CC2)cc1Nc1csc2ccn(C)c(=O)c12
(2) CNC(=O)c1cnc(Nc2ccc(F)cn2)cc1Nc1cccc(C2(F)CC2)c1OC
Ask | 1 or 2 : whose GI50 is greater? Returns: label corresponding to the selected item.
Reply | 2

(P) [2H]C([2H])([2H])NC(=O)c1cnc(NC(=O)C2CC2)cc1Nc1ccn2ncc(OC)c2c1OC
(Q) [2H]C([2H])([2H])NC(=O)c1cnc(Nc2ccn(C)n2)nc1Nc1cccc(-c2ncn(C)n2)c1OC
Ask | Lab notebook, comparison: P versus Q , higher GI50 goes to which? Answer by stating the label of the chosen item.
Reply | Q

====

Assay: Microsomal metabolic stability assay
Format: in vitro ADME
Conditions: pH 7.4; dog liver microsomes, 0.5 mg/mL protein, 1 μM compound; read-out: Dog LM Clint
MEASURE: microsomal CLint at 1 μM (µL/min/mg)

{"columns": ["GIVEN SMILES", "RESULT UNITS", "REPORTED VALUE"],
 "data": [
  ["[2H]C([2H])([2H])NC(=O)c1cnc2cc1Nc1cc(cc(-c3ncn(C)n3)c1OC)COCc1cc(C(F)(F)F)cc(n1)N2", "µL/min/mg", 1.92],
  ["[2H]C([2H])([2H])NC(=O)c1nnc2cc1Nc1cc(cc(-n3cnc(C)n3)c1OC)COCc1nc(ccc1F)N2", "µL/min/mg", 37.7],
  ["[2H]C([2H])([2H])NC(=O)c1cnc(Nc2ccc(F)cn2)cc1Nc1cn(C)c2ccn(CC)c(=O)c12", "µL/min/mg", 33.1]
]}

(P) [2H]C([2H])([2H])NC(=O)c1cnc(Nc2cc(C)nc(C)n2)cc1Nc1cc(F)c2cnn(CC)c2c1OC
(Q) [2H]C([2H])([2H])NC(=O)c1nnc2cc1Nc1cc(cc(-c3ncn(C)n3)c1OC)CN(C)Cc1nc(ccc1F)N2
(R) [2H]C([2H])([2H])NC(=O)c1nnc2cc1Nc1cc(cc(-c3ncn(C)n3)c1OC)COCc1nc(ccc1F)N2
(S) [2H]C([2H])([2H])NC(=O)c1cnc(NC(=O)C2CC2)cc1Nc1csc2cnn(CC(F)(F)F)c(=O)c12
Ask | Sort low-to-high on microsomal CLint at 1 μM, please. Answer format: the labels, ordered as requested.
Reply | S, Q, R, P

====

Biological target: TYK2-JH2 domain (Homo sapiens)
Construct: IC50 on JH2 domain activity (nM)
Sequence (P29597 589-875 limits assumed): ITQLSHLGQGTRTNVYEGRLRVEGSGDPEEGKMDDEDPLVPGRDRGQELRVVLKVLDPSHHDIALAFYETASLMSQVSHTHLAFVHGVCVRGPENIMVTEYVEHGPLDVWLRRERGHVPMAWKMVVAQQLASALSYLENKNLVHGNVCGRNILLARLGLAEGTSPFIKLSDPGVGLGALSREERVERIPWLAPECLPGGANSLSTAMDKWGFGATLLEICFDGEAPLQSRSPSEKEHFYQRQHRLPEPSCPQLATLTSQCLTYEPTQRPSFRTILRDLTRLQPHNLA
Assay: Binding activity test for JH2 domain of TYK2 (Tb-antibody/tracer FRET)
pIC50: −log10 of the molar value.
MEASURE: pIC50

{"columns": ["GIVEN SMILES", "MEASURE", "REPORTED VALUE"],
 "data": [
  ["C=CCn1cc(Nc2cc(NC(=O)C3CC3)ncc2C(=O)NC)c2c(=O)n(CC)ccc21", "pIC50", 9.81]
]}

(A) [2H]C([2H])([2H])NC(=O)c1cnc(NC(=O)C2CC2)cc1Nc1ncc2cnn(C3CC3)c2c1OC
(B) CCc1nn(C)c2ccc(Nc3cc(NC(=O)C4CC4)ncc3C(=O)OC)c(OC)c12
Ask | // which entry reports the smaller pIC50, A or B ? // output: label of the selected item
Reply | B
(B: 7.20, A: 9.74)

====

Biological target: Ba/F3-FL-TYK2-P760L cells (Homo sapiens, UniProt P29597, P760L, cells depend on it)
Construct: BaF3-FL-T2P760L (nM)
Assay: Anti-proliferative assay, Ba/F3-FL-TYK2-P760L cells (Cell-Titer Glo)
Type: cell-based
Conditions: 72 h, read-out: BaF3-FL-T2P760L IC50
MEASURE: GI50 (nM)

Examples with their reported GI50 follow.
{"columns": ["GIVEN SMILES", "GI50 / nM"],
 "data": [
  ["[2H]C([2H])([2H])NC(=O)c1cnc2nc1Nc1cc(cc(-c3ncn(C)n3)c1OC)COCc1cc(ccc1F)N2", 58.7],
  ["[2H]C([2H])([2H])NC(=O)c1cnc(NC(=O)[C@@H]2C[C@@H]2F)cc1Nc1cn(C)c2ccn(CC)c(=O)c12", 807],
  ["CCn1ccc2c(c(Nc3cc(Nc4ncc(F)cc4F)ncc3C(=O)NC)cn2C)c1=O", 488]
]}

(a) [2H]C([2H])([2H])NC(=O)c1cnc(NC(=O)[C@H]2C[C@H]2F)cc1Nc1cn(C)c2ccn(CC)c(=O)c12
(b) [2H]C([2H])([2H])NC(=O)c1cnc(NC(=O)C2CC2)cc1Nc1cnn2ccn(CC(F)(F)F)c(=O)c12
(c) [2H]C([2H])([2H])NC(=O)c1cnc(NC(=O)C2CC2)cc1Nc1ccc2nnn(CC)c2c1OC
(d) [2H]C([2H])([2H])NC(=O)c1cnc(Nc2ccc(F)cn2)cc1Nc1ccc2cnn(C([2H])([2H])[2H])c2c1OC
Ask | Please list these in order of increasing GI50. Thank you! Would you mind listing the labels in the order requested?
Reply | d, b, c, a
(d: 29.1 nM, b: 160 nM, c: 349 nM, a: 809 nM)

====

Target: TYK2-JH2 domain (Homo sapiens)
Construct: IC50 on JH2 domain activity (nM)
Assay: Binding activity test for JH2 domain of TYK2 (Tb-antibody/tracer FRET)
pIC50: −log10 of the molar value.
MEASURE: pIC50

(I) [2H]C([2H])([2H])NC(=O)c1cnc(NC(=O)C2CC2)cc1Nc1ccc2c(c(CC)nn2C)c1OC [Example 150]
(II) [2H]C([2H])([2H])NC(=O)c1cnc(NC(=O)C2CC2)cc1Nc1nn(CC)c2ccn(CC(F)(F)F)c(=O)c12 [Example 105]
(III) [2H]C([2H])([2H])NC(=O)c1cnc(NC(=O)C2CC2)cc1Nc1ccn2ncc(C#N)c2c1OC [Example 165]
(IV) [2H]C([2H])([2H])NC(=O)c1cnc(Nc2cc(C)nc(C)n2)cc1Nc1cc(F)c2cnn(CC)c2c1OC [Example 152]
Ask | List the compounds shown above again, sorted by falling pIC50 values. Kindly provide the labels arranged according to the requested ordering.
Reply | IV, III, II, I
